Target: N-type calcium channel subunits (α1B, α2δ, and β3a) (Homo sapiens)
Sequence (Q00975 whole entry): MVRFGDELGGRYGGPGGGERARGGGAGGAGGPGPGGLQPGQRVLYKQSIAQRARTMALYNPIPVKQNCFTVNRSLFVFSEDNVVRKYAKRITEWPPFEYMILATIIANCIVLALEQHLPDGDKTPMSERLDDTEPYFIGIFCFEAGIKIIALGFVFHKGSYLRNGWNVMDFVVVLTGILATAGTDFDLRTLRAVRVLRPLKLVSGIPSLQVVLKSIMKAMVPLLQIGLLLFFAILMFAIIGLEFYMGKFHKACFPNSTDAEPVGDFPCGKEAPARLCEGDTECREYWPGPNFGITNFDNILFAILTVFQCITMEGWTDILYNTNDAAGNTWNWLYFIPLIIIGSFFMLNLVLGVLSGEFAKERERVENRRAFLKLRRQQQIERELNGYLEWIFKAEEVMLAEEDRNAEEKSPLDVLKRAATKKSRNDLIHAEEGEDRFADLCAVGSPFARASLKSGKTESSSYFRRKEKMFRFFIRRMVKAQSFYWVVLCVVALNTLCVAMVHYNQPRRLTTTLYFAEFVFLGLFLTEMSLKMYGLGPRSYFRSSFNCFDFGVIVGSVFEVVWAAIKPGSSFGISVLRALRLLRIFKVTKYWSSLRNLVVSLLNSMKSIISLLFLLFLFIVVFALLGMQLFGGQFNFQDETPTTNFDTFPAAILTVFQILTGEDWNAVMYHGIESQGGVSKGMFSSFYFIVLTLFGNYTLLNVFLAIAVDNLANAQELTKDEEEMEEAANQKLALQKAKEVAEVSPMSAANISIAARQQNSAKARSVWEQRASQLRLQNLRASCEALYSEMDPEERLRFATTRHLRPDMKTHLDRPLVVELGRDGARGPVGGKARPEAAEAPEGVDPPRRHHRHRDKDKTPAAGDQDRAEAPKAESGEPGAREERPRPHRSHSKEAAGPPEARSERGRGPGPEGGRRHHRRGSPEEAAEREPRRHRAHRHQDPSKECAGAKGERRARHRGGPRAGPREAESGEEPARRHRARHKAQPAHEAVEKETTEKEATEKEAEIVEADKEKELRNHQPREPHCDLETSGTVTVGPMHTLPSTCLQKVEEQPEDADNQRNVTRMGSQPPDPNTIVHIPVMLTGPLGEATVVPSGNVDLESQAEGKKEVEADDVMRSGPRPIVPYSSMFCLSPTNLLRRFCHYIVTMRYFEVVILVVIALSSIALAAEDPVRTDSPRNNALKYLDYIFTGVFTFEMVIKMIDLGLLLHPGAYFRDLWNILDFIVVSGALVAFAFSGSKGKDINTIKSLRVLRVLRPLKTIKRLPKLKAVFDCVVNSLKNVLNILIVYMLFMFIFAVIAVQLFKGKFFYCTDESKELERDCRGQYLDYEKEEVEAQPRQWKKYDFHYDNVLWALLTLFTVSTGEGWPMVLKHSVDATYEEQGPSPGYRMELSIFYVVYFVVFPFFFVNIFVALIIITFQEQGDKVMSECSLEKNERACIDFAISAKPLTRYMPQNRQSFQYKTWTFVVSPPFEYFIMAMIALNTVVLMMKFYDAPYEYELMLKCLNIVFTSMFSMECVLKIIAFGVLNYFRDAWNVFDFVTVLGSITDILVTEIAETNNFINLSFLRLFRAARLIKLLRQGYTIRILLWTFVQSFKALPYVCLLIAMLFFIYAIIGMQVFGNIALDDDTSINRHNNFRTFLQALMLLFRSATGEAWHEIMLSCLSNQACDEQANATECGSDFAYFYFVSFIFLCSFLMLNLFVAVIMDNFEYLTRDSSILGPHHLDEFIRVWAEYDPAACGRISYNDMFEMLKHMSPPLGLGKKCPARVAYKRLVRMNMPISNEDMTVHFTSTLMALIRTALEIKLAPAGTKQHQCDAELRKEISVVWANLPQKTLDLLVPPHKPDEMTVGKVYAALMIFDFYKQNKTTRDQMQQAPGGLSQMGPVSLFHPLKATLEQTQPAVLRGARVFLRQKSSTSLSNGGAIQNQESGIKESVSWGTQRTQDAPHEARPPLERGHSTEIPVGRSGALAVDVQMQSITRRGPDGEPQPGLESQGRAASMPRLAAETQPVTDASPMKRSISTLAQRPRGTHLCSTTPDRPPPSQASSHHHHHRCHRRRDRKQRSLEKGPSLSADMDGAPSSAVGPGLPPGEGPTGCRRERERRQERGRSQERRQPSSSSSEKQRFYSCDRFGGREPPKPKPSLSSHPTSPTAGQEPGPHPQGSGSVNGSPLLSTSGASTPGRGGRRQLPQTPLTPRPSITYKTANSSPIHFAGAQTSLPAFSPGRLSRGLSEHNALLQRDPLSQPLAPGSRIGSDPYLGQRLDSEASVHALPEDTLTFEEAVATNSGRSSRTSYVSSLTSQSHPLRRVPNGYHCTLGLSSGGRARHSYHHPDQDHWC
Sequence (P54289 25-1103 partner): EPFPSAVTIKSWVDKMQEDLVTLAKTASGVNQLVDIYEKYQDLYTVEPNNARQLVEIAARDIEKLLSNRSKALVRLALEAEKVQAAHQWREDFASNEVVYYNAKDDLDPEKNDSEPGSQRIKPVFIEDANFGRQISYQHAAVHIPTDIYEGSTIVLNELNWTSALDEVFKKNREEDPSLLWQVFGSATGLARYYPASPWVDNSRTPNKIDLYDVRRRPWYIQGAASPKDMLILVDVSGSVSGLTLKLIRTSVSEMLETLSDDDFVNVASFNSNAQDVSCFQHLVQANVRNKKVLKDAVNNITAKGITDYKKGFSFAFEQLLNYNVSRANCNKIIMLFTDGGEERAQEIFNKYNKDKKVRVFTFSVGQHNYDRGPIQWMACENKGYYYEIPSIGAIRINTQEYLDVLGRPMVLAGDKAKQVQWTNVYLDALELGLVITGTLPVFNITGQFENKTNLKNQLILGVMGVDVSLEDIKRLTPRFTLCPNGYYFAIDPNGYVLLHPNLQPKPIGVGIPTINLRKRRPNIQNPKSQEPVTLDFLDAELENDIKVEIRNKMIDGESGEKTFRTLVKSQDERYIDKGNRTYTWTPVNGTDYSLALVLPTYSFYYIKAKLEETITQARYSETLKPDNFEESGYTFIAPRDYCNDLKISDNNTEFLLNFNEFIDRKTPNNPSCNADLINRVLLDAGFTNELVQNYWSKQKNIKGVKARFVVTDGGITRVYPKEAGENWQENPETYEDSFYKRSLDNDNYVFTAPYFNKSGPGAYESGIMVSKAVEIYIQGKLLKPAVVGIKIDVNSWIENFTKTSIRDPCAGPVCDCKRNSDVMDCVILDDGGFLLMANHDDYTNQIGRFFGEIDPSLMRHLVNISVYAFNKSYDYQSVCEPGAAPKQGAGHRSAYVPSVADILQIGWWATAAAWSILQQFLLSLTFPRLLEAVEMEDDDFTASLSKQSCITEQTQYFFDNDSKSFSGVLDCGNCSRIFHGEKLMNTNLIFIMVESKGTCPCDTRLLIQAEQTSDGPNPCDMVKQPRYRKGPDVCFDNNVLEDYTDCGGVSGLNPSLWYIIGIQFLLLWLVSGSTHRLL
Sequence (P54284 whole entry partner): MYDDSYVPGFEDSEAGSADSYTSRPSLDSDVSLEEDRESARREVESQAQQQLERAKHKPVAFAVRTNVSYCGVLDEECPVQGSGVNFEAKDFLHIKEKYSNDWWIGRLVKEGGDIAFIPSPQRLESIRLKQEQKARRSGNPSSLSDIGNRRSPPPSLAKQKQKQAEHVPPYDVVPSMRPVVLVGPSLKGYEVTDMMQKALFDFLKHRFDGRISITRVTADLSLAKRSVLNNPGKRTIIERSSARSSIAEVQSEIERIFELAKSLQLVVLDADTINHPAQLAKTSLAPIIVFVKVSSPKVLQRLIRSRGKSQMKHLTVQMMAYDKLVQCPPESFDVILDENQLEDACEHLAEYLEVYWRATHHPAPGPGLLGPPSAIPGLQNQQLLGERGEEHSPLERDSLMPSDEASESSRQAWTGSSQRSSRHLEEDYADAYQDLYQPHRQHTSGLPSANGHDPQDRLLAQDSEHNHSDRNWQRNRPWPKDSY
Test: Block of Cav2.2 channel, whole cell voltage clamp, manual and PatchXpress
Type: cell-based
Conditions: Table 5; table follows Assay Example 3 (whole cell voltage clamp / PatchXpress); assay not given
Reported IC50 values for a set of molecules
MEASURED_ATTRIBUTE: IC50 (nM)

MOLECULE	SCALE_UNIT	REPORTED
O=C(NC[C@H]1C[C@@H](S(=O)(=O)c2cccc(C(F)(F)F)c2)C1)c1cn2cc(C(F)(F)F)ccc2n1	nM	960
CC(C)S(=O)(=O)c1cc(C(F)(F)F)cnc1C(=O)N[C@H]1CC[C@H](CS(=O)(=O)c2cccc(C(F)(F)F)c2)CC1	nM	510
O=C(NC[C@H]1C[C@H](S(=O)(=O)c2cccc(C(F)(F)F)c2)C1)c1cc(F)cc(Cl)c1	nM	290
O=C(NC[C@H]1C[C@@H](S(=O)(=O)c2cccc(C(F)(F)F)c2)C1)c1ccc(C(F)(F)F)cn1	nM	710
O=C(CNCC1CC(S(=O)(=O)c2cccc(C(F)(F)F)c2)C1)NC1CCCCC1 (stereo not shown)	nM	490
O=C(N[C@H]1C[C@H](S(=O)(=O)c2cccc(C(F)(F)F)c2)C1)c1ccc(F)c(C(F)(F)F)c1	nM	1500
Cn1nc(C(F)(F)F)cc1C(=O)NC[C@H]1C[C@@H](S(=O)(=O)c2cccc(C(F)(F)F)c2)C1	nM	1130
COc1cc(F)cc(C(=O)NC2CCC(S(=O)(=O)c3cccc(C(F)(F)F)c3)CC2)c1 (stereo not shown)	nM	360
CC1(NC(=O)CN[C@H]2C[C@H](CS(=O)(=O)c3cccc(C(F)(F)F)c3)C2)CCC1	nM	2770
Cc1nc(C(F)(F)F)ccc1NC(=O)[C@H]1C[C@H](S(=O)(=O)c2cccc(C(F)(F)F)c2)C1	nM	5440
CC(C)([C@H]1C[C@H](NC(=O)c2ccc(C(F)(F)F)cc2S(C)(=O)=O)C1)S(=O)(=O)c1cccc(C(F)(F)F)c1	nM	400
CC(C)S(=O)(=O)c1cc(C(F)(F)F)cnc1C(=O)N[C@H]1CC[C@@](F)(S(=O)(=O)c2cccc(C(F)(F)F)c2)CC1	nM	30
O=C(N[C@H]1CC[C@@](F)(S(=O)(=O)c2cc(F)cc(C(F)(F)F)c2)CC1)c1cc(F)cc(Cl)c1	nM	330
O=C(NC[C@H]1C[C@H](S(=O)(=O)c2cccc(C(F)(F)F)c2)C1)c1ccc(F)c(C(F)(F)F)c1	nM	140
COc1cc(C(=O)NC[C@]2(O)CC[C@@H](S(=O)(=O)c3cccc(C(F)(F)F)c3)CC2)cc(Cl)n1	nM	2100
COc1cc(F)cc(C(=O)NC[C@H]2CC[C@@H](S(=O)(=O)c3cccc(C(F)(F)F)c3)CC2)c1	nM	720
O=C(N[C@H]1CC[C@@](F)(S(=O)(=O)c2cccc(C(F)(F)F)c2)CC1)c1cn2cc(C(F)(F)F)ccc2n1	nM	470
O=C(CN[C@H]1C[C@H](S(=O)(=O)c2cccc(C(F)(F)F)c2)C1)N1CCC(C(F)(F)F)CC1	nM	2090
O=C(NC[C@H]1C[C@H](S(=O)(=O)c2cccc(C(F)(F)F)c2)C1)c1ccc(Cl)c(OC(F)(F)F)c1	nM	190
CS(=O)(=O)c1cc(C(F)(F)F)cnc1C(=O)N[C@H]1CC[C@@](F)(S(=O)(=O)c2cccc(C(F)(F)F)c2)CC1	nM	500
CC(C)S(=O)(=O)c1cc(C(F)(F)F)cnc1C(=O)NC[C@H]1C[C@H](S(=O)(=O)c2cccc(C(F)(F)F)c2)C1	nM	250
CN(C(=O)c1ccc(F)c(Cl)c1)[C@H]1CC[C@@](F)(S(=O)(=O)c2cc(F)cc(C(F)(F)F)c2)CC1	nM	520
COc1cc(Cl)ccc1C(=O)N[C@H]1CC[C@@](F)(S(=O)(=O)c2cccc(C(F)(F)F)c2)CC1	nM	260
Cc1nc(C(F)(F)F)ccc1NC(=O)[C@H]1C[C@@H](S(=O)(=O)c2cccc(C(F)(F)F)c2)C1	nM	3500
COc1cc(F)cc(C(=O)N[C@H]2CC[C@@](F)(S(=O)(=O)c3cccc(C(F)(F)F)c3)CC2)c1	nM	240
CC1(CNCC(=O)NC(C)(C)C)CCC(F)(S(=O)(=O)c2cccc(C(F)(F)F)c2)CC1 (stereo not shown)	nM	460
O=C(NC[C@H]1C[C@@H](S(=O)(=O)c2cccc(C(F)(F)F)c2)C1)c1ccnc(C(F)(F)F)c1	nM	2370
COc1cc(F)cc(C(=O)N[C@H]2CC[C@](F)(S(=O)(=O)c3cccc(C(F)(F)F)c3)CC2)c1	nM	3000

// data source = patent US20120245137A1
